Data origin: ChEMBL document CHEMBL3507680

test: Human HepG2 cell viability assay in 384 well format; type: toxicity, cell-based; design: dose 125 nL, time 70.5 hour; concentration not given beside the values; settings: HepG2 cells, read-out: Inhibition
OBSERVED PROPERTY: cytotoxicity at 70.5 h (%)
Reply numerically in %, unit not repeated.

Here are 8 compounds together with their reported answers.
| COMPOUND | QUANTITY UNIT | MEASURED NUMBER |
| --- | --- | --- |
| Cc1cc(C(=O)N2C[C@@H]3COC[C@]3(c3nnc(C)o3)C2)on1 | % | -11.2 |
| Cc1ccc(OCC2CCCN(C(=O)c3csc(CN(C)C)n3)C2)cc1 (stereo unspecified) | % | -4.88 |
| N#Cc1cccnc1NCCNC(=O)N1CCCSCC1 | % | -13 |
| Cc1cnn(CC2CCCN2Cc2nc3ccccc3c(=O)[nH]2)c1 (stereo unspecified) | % | -7.22 |
| Cc1cc(C(=O)N2CCO[C@H]3[C@H](OCCN(C)C)CC[C@@H]32)c(C)[nH]1 | % | -9.02 |
| O=C(c1ncccn1)N1CCC[C@]2(C[C@H](OCC3CC3)CO2)C1 | % | -16.3 |
| Cc1cn2c(n1)CCC(NC(=O)CCn1cncn1)C2 (stereo unspecified) | % | -8.43 |
| N#Cc1ccc2c(c1)CN(C(=O)c1nc[nH]n1)C2c1cnco1 (stereo unspecified) | % | -2.48 |

Prompt: Quick one: cytotoxicity at 70.5 h of CCc1n[nH]c(=O)c(C(=O)N2CCSCC2)c1CC ?
Response: -9.39

Prompt: Then what about the compound COCC(=O)N1CC[C@@H]2O[C@@H](C)C[C@H]2C1 ?
Response: -12.2

Prompt: Then what about the compound Cc1cnccc1Cn1ccnc1C1CCOC1 (stereo unspecified) ?
Response: -7.66
